Test system: U251 CNS
Allowed answers: true (1) (active), false (0) (inactive)

Solved entries (count: 5):
>>> class_name("CS(=O)(=O)c1ccc([C@H]2O[C@@H](CO)C[C@]2(O)c2ccc(S(C)(=O)=O)cc2)cc1")
"false (0)"
>>> class_name("COc1ccc(/C(COc2c(-c3ccccc3)oc3ccccc3c2=O)=N\\O)cc1")
"false (0)"
>>> class_name("CCN(CC)c1ccc(/C=C/c2ccc3cc(C)ccc3[n+]2CC)cc1")
"true (1)"
>>> class_name("CC1=CC(=Nc2ccc(N(CCCl)CCCl)cc2)C=C(C)C1=O")
"false (0)"
>>> class_name("[Cl-].[Dy+3].[O-]/N=C(\\c1ccccc1)c1ccccn1.[O-]/N=C(\\c1ccccc1)c1ccccn1.[O-]/N=C(\\c1ccccc1)c1ccccn1")
"false (0)"

Exam item: Recorded test call requested for Oc1c(CN2CCC(N3CCCCC3)CC2)cc(Cc2cc(CN3CCC(N4CCCCC4)CC3)c(O)c3ncccc23)c2cccnc12
Marked response: false (0)

Exam item: What outcome does the record of this test show for Cc1ccc(NC(=O)c2cccc(N(C)C)c2)cc1NC(=O)c1ccc(O)cc1 ?
Marked response: false (0)

Exam item: Give the logged outcome of this assay for the following compound: N#CSc1c[nH]c2cccc(/C=C/C(=O)/C=C(/C=C/c3cccc4[nH]cc(SC#N)c34)OB(F)F)c12
Marked response: true (1)

----------
Tested on: U251 CNS
TEST METHOD NOTES: NCI tumour cell line growth inhibition, 48 h
PARAMETER: TGI

Here is how some compounds turned out for TGI.
>>> result("O=C(Nc1ccccc1C(=O)NCCCO)/C(=C/c1ccccc1O)NC(=O)c1ccccc1")
"> 81.6 µM"
>>> result("Cn1c2ccccc2n2c(=O)c3cc([N+](=O)[O-])ccc3c(C#N)c12")
"> 100 µM"
>>> result("O=[N+]([O-])c1ccc(-c2ccc(-c3csc(Nc4ccccn4)n3)o2)cc1")
"28.5 µM"
>>> result("COc1ccc(/C=C/c2nccc3ccccc23)cc1OC")
"> 10 µM"
>>> result("CCN1CCC(O)(C(C(=O)O)c2ccccc2)CC1 (configuration not stated)")
"> 100 µM"
>>> result("Cc1nn(-c2cc(Cl)ccc2[N+](=O)[O-])c(C)c1Cl")
"> 100 µM"

Let me check: COc1ccc(-c2cc(=O)c3ccc(O)cc3o2)cc1OC , system U251 CNS, measured TGI is > 100 µM

Entry COc1ccc2cc(NC(=O)N/N=C\c3ccc(Cl)cc3)ccc2c1 , U251 CNS data, TGI value: > 100 µM

The compound COc1cc(C2NC(=O)c3ccccc3N2)ccc1OCCCCCOc1c(OC)cc(C2=NOC(c3cc(OC)c(OC)c(OC)c3)C2)cc1OC (configuration not stated) , tested on U251 CNS, showed TGI of > 100 µM

----------
Test system: HCC-2998 colon
TEST METHOD NOTES: NCI tumour cell line growth inhibition, 48 h
PARAMETER: TGI (µM)
Number in µM, nothing else.

>>> quantitative_readout("CN1CCN(C(=O)OCc2nc3c(N4CCOCC4)nc(Cl)nc3n2C)CC1")
3.15
>>> quantitative_readout("O=C(N/N=C/c1ccccc1O)c1ccccc1Nc1ccnc(C(F)(F)F)c1")
24.7

Here's the next entry for you.
// sample C=C1C(=O)O[C@H]2[C@H]1CC/C(Cn1cc(-c3ccc(OC)cc3)nn1)=C\CC[C@@]1(C)O[C@@H]21 , its TGI was 3.64
